# experiment summary: optical density change of DRC41 E. coli – strain DRC41, OD650, 24 h, E. coli filamentation project, primary screen (AID 1093);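 also: MC1000 strain lacking acrAB efflux and sulA so SOS filamentation is blocked; test concentration not given here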
# applied conditions: E. coli DRC41 growth, called active from +8 up or from −8 down
Activity calls are given as the source filed them.
Would you mind answering with one of these outcomes? active, inactive

>>> assigned_category("CC[C@@H]1[C@@H]2C3C(=O)N(CC)C(=O)C3CC(=O)[C@@H]2[C@H](c2ccc(C)cc2)N1S(=O)(=O)c1ccc(C)cc1 (some centres not stated)")
"inactive"
>>> assigned_category("COC(=O)[C@@]1(Cc2ccccc2N=[N+]=[N-])N=C(c2ccc(OCCCO)cc2)O[C@H]1c1ccccc1")
"inactive"
>>> assigned_category("CC(C)=CCCC(C)=CC(O)C1C=CC2C(=O)N(c3ccccc3)C(=O)C2N1Nc1ccc([N+](=O)[O-])cc1 (configuration not stated)")
"inactive"

// switching to the query molecule
Call for entry "CCC[C@@H]1C[C@@]1(CCC)[C@@H](NC(=O)c1ccco1)c1ccc(Cl)cc1" :
inactive

###

# target under test: Fibroblast growth factor 10 (Homo sapiens)
# experiment summary: compounds binding fibroblast growth factor 10 – biochemical, small-molecule microarray, 635 nm fluorescence, primary screen (AID 1102)
# applied conditions: FGF10 binding, fluorescence 635 nm, higher = more signal
Label y when composite z-score is at or above 0.5; otherwise label n.

Use the examples below as a reference point.
>>> assigned_category("COC(=O)[C@@]1(Cc2ccc(OC)cc2)[C@H]2c3cc(C(=O)N(C)C)n(Cc4cc(F)c(F)c(F)c4)c3C[C@H]2CN1C(=O)c1ccccc1")
"y"
>>> assigned_category("CCCC[C@@H](O)C1=C(COc2ccccc2)Cn2c(=O)n(-c3ccccc3)c(=O)n2[C@H]1CO")
"n"
>>> assigned_category("CC1=C2[C@@H](CCc3ccccc3)OB(O)C[C@@H]2[C@@H]2C(=O)C=CC(=O)[C@@H]2C1")
"y"
>>> assigned_category("CC(C)N1C(=O)c2ccccc2[C@](C)(C(=O)O)[C@@H]1c1ccc(CO)cc1")
"n"
>>> assigned_category("CC(C)C[C@@H]1NC(=O)[C@@]23C(=O)N[C@@H](Cc4ccccc4)C2[C@H](C)[C@@]2(C)O[C@H]2C3/C=C/C/C=C\\CNC(=O)[C@@H]2CCCN2C1=O (some centres not stated)")
"n"

Could you verify whether the entry "CC(C)[Si](C#C[Si](C(C)C)(C(C)C)C(C)C)(O[C@H](C)c1cn(Cc2cccc(Cl)c2)nn1)C(C)C" shows composite z-score of no less than 0.5?
y

And then "COCCOC(=O)N1C(=O)[C@@]2(c3cc(C#CCNC(N)=O)ccc31)[C@H](C(N)=O)[C@H]1C(=O)O[C@H](c3ccccc3)[C@H](c3ccccc3)N1[C@@H]2c1ccc(OCCO)cc1" , what is it?
y

###

composite z-score for assorted compounds
# Test system: Noggin (protein binding on small-molecule microarray)
# experiment summary: small molecules binding Noggin protein – biochemical, 635/667 nm fluorescence, primary screen (AID 1095);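 also: score merges 667 nm feature fluorescence with signal to noise over triplicate slides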
# applied conditions: 635 nm fluorescence, higher = more signal

Param item = "COCCOC(=O)N1C(=O)[C@@]2(c3cc(C#Cc4ccc(OC)cc4)ccc31)[C@H](C(=O)N1CCc3cc(OC)c(OC)cc3C1)[C@H]1C(=O)O[C@H](c3ccccc3)[C@H](c3ccccc3)N1[C@@H]2c1ccc(O)cc1" ; retrieve measured composite z-score.
0.614

###

# target under test: Follistatin-related protein 3 (Homo sapiens)
# experiment summary: compounds binding follistatin-related protein 3 – biochemical, small-molecule microarray, 635 nm fluorescence, primary screen (AID 1105);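 also: score merges emission near 667 nm and signal to noise per printed spot across three slides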
# applied conditions: FSTL3 binding, higher = more signal
Label y when composite z-score is at or above 0.8; otherwise label n.

Use the examples below as a reference point.
>>> assigned_category("COc1ccc(C(=O)Nc2ccc3c(c2)[C@]2(O[C@@H](CCO)[C@H]([Si](C)(C)c4ccc(OC)cc4)[C@H]2C)C(=O)N3Cc2ccccc2)cc1")
"n"
>>> assigned_category("COc1ccc([Si](C)(C)[C@@H]2[C@@H](CC(=O)N3Cc4ccccc4C[C@H]3CO)O[C@]3(C(=O)N(Cc4cccc(N5CCCCC5=O)c4)c4ccccc43)[C@H]2C)cc1")
"y"
>>> assigned_category("Cc1ccccc1C(O)C1C=CC2C(=O)N(Cc3ccccc3)C(=O)C2N1n1cnnc1 (configuration not stated)")
"y"
>>> assigned_category("C=CC[C@@]1(C(=O)NCCN2CCOCC2)N=C(c2ccc(OCCCO)cc2)O[C@@H]1c1ccccc1")
"y"
>>> assigned_category("CN(C)CCCN1C(=O)[C@@]2(Cc3ccccc31)c1ccccc1C(=O)N(Cc1ccccc1)[C@H]2c1ccc(CO)cc1")
"n"
>>> assigned_category("[N-]=[N+]=Nc1ccccc1[C@H]1OC(c2ccc(OCCCO)cc2)=N[C@@]1(Cc1ccccc1)C(=O)NCc1ccccc1")
"n"

// switching to the query compound
Could you verify whether the entry "CCCN1C(=O)[C@@H]2Cc3c([nH]c4ccccc34)[C@@H](c3cccc(O)c3)N2C1=O" shows composite z-score of no less than 0.8?
n

###

# target under test: Homeobox protein Hox-A13 (Mus musculus) (UniProt Q62424)
# Sequence (Q62424 whole entry, looked up): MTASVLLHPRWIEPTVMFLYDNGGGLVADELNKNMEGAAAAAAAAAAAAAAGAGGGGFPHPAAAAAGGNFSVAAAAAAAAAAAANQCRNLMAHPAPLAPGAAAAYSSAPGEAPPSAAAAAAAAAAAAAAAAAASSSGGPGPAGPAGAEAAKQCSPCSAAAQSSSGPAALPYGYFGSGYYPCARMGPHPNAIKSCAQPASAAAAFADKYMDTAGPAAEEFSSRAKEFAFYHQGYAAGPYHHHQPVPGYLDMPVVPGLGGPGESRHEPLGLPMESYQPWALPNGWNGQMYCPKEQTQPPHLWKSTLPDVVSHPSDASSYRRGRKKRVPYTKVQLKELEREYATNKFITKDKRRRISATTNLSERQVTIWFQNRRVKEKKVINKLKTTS
# experiment summary: disruptors of Hoxa13 oligonucleotide interaction – biochemical, fluorescence polarization, labeled oligonucleotide, primary screen (AID 1185)
# applied conditions: Hoxa13:DNA binding, 15 min, higher = more signal, called active from +8 up or from −8 down
Label t when z-score is at or above -2; otherwise label f.

Use the examples below as a reference point.
>>> assigned_category("COCCOC(=O)N1C(=O)[C@@]2(c3cc(C#CC4(O)CCCCCC4)ccc31)[C@H](C(=O)N1CCc3cc(OC)c(OC)cc3C1)[C@H]1C(=O)O[C@H](c3ccccc3)[C@H](c3ccccc3)N1[C@@H]2c1ccccc1OCCO")
"t"
>>> assigned_category("COc1ccc([Si](C)(C)[C@@H]2[C@@H](CCO)O[C@]3(C(=O)N(Cc4ccc(N5C(=O)c6ccccc6Oc6ccccc65)cc4)c4ccccc43)[C@H]2C)cc1")
"t"

Could you verify whether the entry "CN(C)C(=O)[C@@]1(CCS(=O)(=O)c2ccccc2)N=C(c2ccc(OCCCO)cc2)O[C@H]1c1ccccc1CN=[N+]=[N-]" shows z-score of no less than -2?
f

And then "O=C1N(Cc2ccccc2)c2ccccc2[C@H]2OC(c3ccc(OCCCO)cc3)=N[C@@]12CCS(=O)(=O)c1ccccc1" , what is it?
t

And then "COc1cc2c(cc1OC)CN(C(=O)[C@@H]1[C@H]3C(=O)O[C@H](c4ccccc4)[C@H](c4ccccc4)N3[C@H](c3ccc(OCCO)cc3)[C@@]13C(=O)Nc1ccc(C#CCCO)cc13)CC2" , what is it?
t

And then O=C1C2C=CC(C(O)c3ccccn3)N(Nc3ccccc3)C2C(=O)N1c1ccccc1 (stereo unspecified) , what is it?
t

###

# target under test: Calmodulin-1 (Homo sapiens) (UniProt P0DP23)
# experiment summary: small molecules binding Ca-loaded calmodulin-1 – biochemical, small-molecule microarray, Cy5-labelled CALM1, plus calcium, artefact control for SMM control-protein annotation, profiling panel (AID 1112);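 also: score merges spot fluorescence with signal to noise from triplicate slides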
# applied conditions: Cy5-CALM1 binding fluorescence, higher = more signal
measured endpoint: composite z-score
Just the number, please, no unit attached.

# count of solved cases: 5
>>> assay_result("C[C@H]1NC(=O)C([C@@H](C)OCc2ccccc2)NC(=O)[C@@]23C(=O)N[C@@H](Cc4ccccc4)C2[C@H](C)[C@@]2(C)O[C@H]2C3/C=C/CC/C=C/CNC1=O (stereo partly drawn)")
-0.377
>>> assay_result("COc1ccc([Si](C)(C)[C@@H]2[C@@H](CCO)O[C@]3(C(=O)N(Cc4ccc(N5C(=O)c6ccccc6Oc6ccccc65)cc4)c4ccccc43)[C@H]2C)cc1")
0.751
>>> assay_result("O=C1NC(=O)C2C1C=CC(C(O)CCc1ccccc1)N2Nc1ccccn1 (stereo not drawn)")
0.569
>>> assay_result("COC(=O)[C@@]1(Cc2ccccc2)[C@H]2c3cc(C(=O)N(C)C)n(Cc4ccccn4)c3C[C@H]2CN1C(=O)c1ccccc1")
1.35
>>> assay_result("C=C[C@H](C)[C@H](OC(=O)Nc1ccc(SC)cc1)c1ccc(O)c2ccccc12")
0.273

Param item = "COC(=O)[C@@]1(Cc2ccccc2)[C@H]2c3cc(C(=O)N4CCCC4)n(Cc4ccc(OC(F)(F)F)cc4)c3C[C@H]2CN1C(=O)c1ccccc1" ; retrieve measured composite z-score.
1.41

And then C=CCC(OC(C)=O)[C@@H]1[C@@H](N(Cc2ccc(-c3ccccc3)cc2)C(=O)c2cccc3ccccc23)c2cc(OCCCO)ccc2N1C(=O)c1ccc2ccccc2n1 (stereo partly drawn) , what is it?
1.01

And then "[N-]=[N+]=NCc1ccccc1[C@H]1OC(c2ccc(OCCCO)cc2)=N[C@@]1(Cc1ccccc1N=[N+]=[N-])C(=O)N1CCCCC1" , what is it?
0.289
